tested_system: T1, cynomolgus monkey CD8 alpha on primary cynomolgus CD8+ T cells (cynomolgus monkey, UniProt P01732 23-235 (human entry))
T1 construct: also called Cyno CD8alpha; cyno CD8A
T1 sequence (P01732 other isoform, or with tags, fused parts or gaps limits assumed): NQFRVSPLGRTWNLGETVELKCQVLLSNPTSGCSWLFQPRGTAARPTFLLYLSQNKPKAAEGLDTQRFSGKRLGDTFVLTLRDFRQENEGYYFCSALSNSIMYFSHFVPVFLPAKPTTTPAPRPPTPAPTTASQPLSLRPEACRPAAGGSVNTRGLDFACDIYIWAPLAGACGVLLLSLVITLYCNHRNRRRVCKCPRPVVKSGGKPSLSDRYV
protocol_details: flow cytometry, cyno CD8+ T cells
endpoint_name: Cyno T-cell Binding 2 uM (MFI)

{"binder": "P283DR9P1364_E9 (designed binder, FN3 domain) LPAPKNLVVSRVTEDSARLSWTAPDAAFDSFDIAYPEWPTKGEAIVLTVPGSERSYDLTGLKPGTEYFVVINGVKGGWRSFPLSAIFTT", "assay_value": 19700}

[a] P283HR7P1368_H1 (designed binder, FN3 domain) LPAPKNLVVSRVTEDSARLSWTAPDAAFDSFGIAYIETARWGEAISLTVPGSERSYDLTGLKPGTEYNVVIIGVKGGTPSHPLGAPFTT
[b] P283DR9P1364_A7 (designed binder, FN3 domain) LPAPKNLVVSRVTEDSARLSWTAPDAAFDSFRIAYPEWPVRGDAIVLTVPGSERSYDLTGLKPGTEYWVIIQGVKGGTDSFPLSAIFTT
Ask: Between the two listed entries a and b , which has its Cyno T-cell Binding 2 uM (MFI) at the higher number? API: response body contains the label of the selected item.
Reply: b

Values were extracted from patent US20210032312A1.
